- EXPERIMENT: RP, Waters ACQUITY UPLC BEH C18, 100 × 2.1 mm, 1.7 µm; A: water + 0.1% formic acid, pH 3; B: 80% acetonitrile + 20% acetone + 0.1% formic acid, pH 3; gradient (min/%B) 0/0 6/100
- EXPERIMENTAL_PARAMETERS: stereoisomer not certain
MEASURED_PARAMETER: LC retention time (min)

COMPOUND	ENDPOINT_RESULT
CN(C)CC(=O)O	0.572
NC(CCC(=O)O)C(=O)O (centres undefined)	0.577
NC(=O)NCCCC(N)C(=O)O (centres undefined)	0.575
Nc1ccc(O)cc1	0.641
